Tested on: CCRF-CEM
Assay: Antiproliferative activity against human CCRF-CEM cells after 72 hrs by MTT assay
Type: functional, cell-based
pIC50: −log10 of the molar value.
readout_type: pIC50

compound	target_desc	result_value
C=C(CC[C@@H](C(=O)O)[C@H]1[C@H](O)C[C@@]2(C)C3=CC[C@H]4C(C)(C)[C@@H](O)CC[C@]4(C)C3=CC[C@]12C)C(C)C [DEHYDROTUMULOSIC ACID]	CCRF-CEM	< 4.40
COc1cccc2c1C(=O)c1c(O)c3c(c(O)c1C2=O)C[C@@](O)(C(=O)CO)C[C@@H]3O[C@H]1C[C@H](N)[C@H](O)[C@H](C)O1	CCRF-CEM	8.00
C=C(C)C(=O)CC[C@@H](C(=O)O)[C@H]1[C@H](O)C[C@@]2(C)C3=C(CC[C@]12C)[C@@]1(C)CC[C@H](O)C(C)(C)[C@@H]1CC3	CCRF-CEM	< 4.40
C=C(CC[C@@H](C(=O)O)[C@H]1[C@H](O)C[C@@]2(C)C3=C(CC[C@]12C)[C@@]1(C)CC[C@@H](O)C(C)(C)[C@@H]1CC3=O)C(C)C	CCRF-CEM	< 4.40

Using known records, supply pIC50 for C=C(CC[C@@H](C(=O)O)[C@H]1[C@H](O)C[C@@]2(C)[C@]34C=C[C@@]5(OO3)C(C)(C)[C@@H](O)CC[C@]5(C)C4=CC[C@]12C)C(C)C < 4.40

For the compound C=C(CC[C@@H](C(=O)O)[C@H]1[C@H](O)C[C@@]2(C)C3=CC[C@H]4C(C)(C)[C@H](O)CC[C@]4(C)C3=CC[C@]12C)C(C)C , give its measured pIC50 value. < 4.40
